Biological target: TFPI (tissue factor pathway inhibitor, full-length) (Homo sapiens, UniProt P10646 SEQ:1-276)
Sequence (P10646 29-304): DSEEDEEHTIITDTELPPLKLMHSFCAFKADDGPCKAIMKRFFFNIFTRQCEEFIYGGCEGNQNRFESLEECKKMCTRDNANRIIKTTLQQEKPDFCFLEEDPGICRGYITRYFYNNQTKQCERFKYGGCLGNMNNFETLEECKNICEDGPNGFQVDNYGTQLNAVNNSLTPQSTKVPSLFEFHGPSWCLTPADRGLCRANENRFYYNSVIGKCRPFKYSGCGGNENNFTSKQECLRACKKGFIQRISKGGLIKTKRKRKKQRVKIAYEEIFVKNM
Assay: competition; competition with 20 nM ARC19499, plate assay
Details: tags: American Diagnostica 4500PC/4900PC, E. coli expressed
Property measured: IC50 (nM)
The reply should contain only the number, in nM.

Return reported IC50. Input binder: GGAAUAUACUUGGCUCGUUAGGUGCGUAUAUA (mixed, 5'-hexylamine, 2'-OMe A/G/U, 2'-deoxy C, 3' idT) [ARC19498] 20
